The reported measurements were obtained from ChEMBL document CHEMBL1152252.

Below are compounds with their pIC50 as measured on Estrogen receptor beta (Homo sapiens).
Sequence (Q92731 whole entry): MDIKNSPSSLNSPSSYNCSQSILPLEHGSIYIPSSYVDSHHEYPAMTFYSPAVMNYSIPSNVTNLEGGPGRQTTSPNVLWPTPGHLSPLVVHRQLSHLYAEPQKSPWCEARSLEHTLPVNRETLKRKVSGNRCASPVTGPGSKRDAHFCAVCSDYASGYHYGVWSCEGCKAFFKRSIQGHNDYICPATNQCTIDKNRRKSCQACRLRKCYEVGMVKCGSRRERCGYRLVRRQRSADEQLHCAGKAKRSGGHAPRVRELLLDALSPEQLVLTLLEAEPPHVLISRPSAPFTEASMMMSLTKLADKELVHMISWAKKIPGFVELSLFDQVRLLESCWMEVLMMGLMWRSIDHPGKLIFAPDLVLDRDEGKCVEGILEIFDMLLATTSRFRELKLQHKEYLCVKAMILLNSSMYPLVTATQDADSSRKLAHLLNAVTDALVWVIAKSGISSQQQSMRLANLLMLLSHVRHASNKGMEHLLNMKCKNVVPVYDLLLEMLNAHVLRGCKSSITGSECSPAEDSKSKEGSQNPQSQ
Just the number, please; pIC50 means minus log10 of the concentration in mol/L.

Please look up its pIC50: `Oc1ccc(C2=C(c3ccc(OCCN4CCCC4)cc3)c3ccc(F)cc3OCC2)cc1`
9.15

Please look up its pIC50: `Oc1ccc(C2=C(c3ccc(OCCN4CCCCC4)cc3)c3ccc(F)cc3OCC2)cc1`
8.06

Please look up its pIC50: `Oc1ccc(C2=C(c3ccc(OCCN4CCCC4)cc3)CCOc3cc(F)ccc32)cc1`
7.76

Please look up its pIC50: `Oc1cccc(C2=C(c3ccc(OCCN4CCCC4)cc3)c3ccc(F)cc3OCC2)c1`
8.22

Please look up its pIC50: `Oc1ccc(C2=C(c3ccc(OCCN4CCCC4)cc3)c3ccc(O)cc3OCC2)cc1`
8.54

====

This section presents compounds with their documented pIC50 values.
System: MDA-MB-231
Experiment: Antiproliferative activity against hormone independent human MDA-MB-231 cells after 72 hrs by MTT assay
Assay type: functional, cell-based
Details: MDA-MB-231, 72 h
Just the number, please; pIC50 means minus log10 of the concentration in mol/L.

chemical_string=Oc1ccc(C2=C(c3ccc(OCCN4CCCC4)cc3)c3ccc(O)cc3OCC2)cc1 metric_name=pIC50 measured_number=5.59

Now, please, on to the next compound.
Record `Oc1ccc(C2=C(c3ccc(OCCN4CCCC4)cc3)c3ccc(F)cc3OCC2)cc1` : what is its pIC50 with MDA-MB-231?
5.17

====

System: Ishikawa
Experiment: Estrogenic stimulatory activity in human Ishikawa cells assessed as alkaline phosphatase activity at 1 uM after 72 hrs in absence of estradiol
Type: functional
This section presents compounds with their documented Activity values.
Answer in %, number only, no unit symbol.

Previously resolved entries follow.
chemical_string=Oc1ccc(C2=C(c3ccc(OCCN4CCCC4)cc3)CCOc3cc(F)ccc32)cc1 measured_number=23
chemical_string=Oc1ccc(C2=C(c3ccc(OCCN4CCCC4)cc3)c3ccc(O)cc3OCC2)cc1 measured_number=6
chemical_string=CC/C(=C(\c1ccccc1)c1ccc(OCCN(C)C)cc1)c1ccccc1 measured_number=16.5

Now, please, on to the next compound.
Please look up its Activity: `Oc1ccc(C2=C(c3ccc(OCCN4CCCC4)cc3)c3ccc(F)cc3OCC2)cc1`
9.7

====

Below are compounds with their pIC50 as measured on Estrogen receptor (Homo sapiens).
Sequence (P03372 whole entry): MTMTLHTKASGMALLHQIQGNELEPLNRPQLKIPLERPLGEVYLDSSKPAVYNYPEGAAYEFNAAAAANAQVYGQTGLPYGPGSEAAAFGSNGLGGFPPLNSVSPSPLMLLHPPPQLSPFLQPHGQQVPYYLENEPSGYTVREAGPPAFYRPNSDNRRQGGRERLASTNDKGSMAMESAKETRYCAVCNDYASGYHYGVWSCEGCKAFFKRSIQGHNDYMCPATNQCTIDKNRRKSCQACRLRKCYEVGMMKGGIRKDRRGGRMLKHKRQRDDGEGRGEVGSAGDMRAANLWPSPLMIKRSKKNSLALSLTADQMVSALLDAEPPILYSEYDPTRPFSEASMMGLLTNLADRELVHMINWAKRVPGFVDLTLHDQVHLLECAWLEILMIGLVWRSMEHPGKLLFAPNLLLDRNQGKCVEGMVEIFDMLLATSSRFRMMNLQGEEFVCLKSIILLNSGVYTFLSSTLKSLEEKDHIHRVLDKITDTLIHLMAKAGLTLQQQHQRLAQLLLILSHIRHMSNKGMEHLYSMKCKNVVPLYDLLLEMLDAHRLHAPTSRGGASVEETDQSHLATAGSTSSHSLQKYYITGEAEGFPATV
Just the number, please; pIC50 means minus log10 of the concentration in mol/L.

chemical_string=Fc1ccc(C2=C(c3ccc(OCCN4CCCC4)cc3)c3ccc(F)cc3OCC2)cc1 measured_number=6.90
chemical_string=Oc1ccc(C2=C(c3ccc(OCCN4CCCC4)cc3)c3ccc(O)cc3OCC2)cc1 measured_number=8.08
chemical_string=Fc1ccc2c(c1)OCCC(c1ccccc1)=C2c1ccc(OCCN2CCCC2)cc1 measured_number=7.79
chemical_string=Oc1ccc(C2=C(c3ccc(OCCN4CCCC4)cc3)c3ccc(F)cc3OCC2)cc1 measured_number=7.98

Record `Oc1ccc(C2=C(c3ccc(OCCN4CCCCC4)cc3)c3ccc(F)cc3OCC2)cc1` : what is its pIC50 with Estrogen receptor (Homo sapiens)?
8.19

Record `Oc1ccc(C2=C(c3ccc(OCCN4CCCC4)cc3)CCOc3cc(F)ccc32)cc1` : what is its pIC50 with Estrogen receptor (Homo sapiens)?
8.25
